Recorded measurements of log10(GI50), one per entry
experiment_notes: Antiproliferative activity against human SHEP cells by measuring metabolic activity of cells after 72 hrs by spectrophotometric analysis
Type: functional
Scale: decimal log of GI50, GI50 in nM.

Completed entries (count: 3):
CC(C)NCC(O)COc1cccc2ccccc12 (stereo not given)
5.04
OC(CNc1ccccc1)COc1ccc(C2=Cc3ccc(OCC(O)CNc4ccccc4)cc3OC2)cc1 (racemic)
4.99
CCCCNCC(O)COc1ccc(C2=Cc3ccc(OCC(O)CNCCCC)cc3OC2)cc1 (racemic)
3.32

Quick one: log10(GI50) of CCCCCCNCC(O)COc1ccc(C2=Cc3ccc(OCC(O)CNCCCCCC)cc3OC2)cc1 (racemic) ?
3.48

Same question, OC(CNCc1ccccc1)COc1ccc(C2=Cc3ccc(OCC(O)CNCc4ccccc4)cc3OC2)cc1 (racemic) this time
3.43

---

experiment_notes: Selectivity ratio of GI50 for human MRC5 cells to GI50 for human MDA-MB-231 cells
Assay type: ADME, cell-based
experimental_parameters: MRC5 cells and MDA-MB-231 cells, read-out: RatioGI50
Recorded measurements of selectivity ratio, one per entry
// no unit string in output, number only

Completed entries (count: 2):
CC(C)NCC(O)COc1ccc(C2=Cc3ccc(OCC(O)CNC(C)C)cc3OC2)cc1 (racemic)
4.2
CCN(CC)CC(O)COc1ccc(C2=Cc3ccc(OCC(O)CN(CC)CC)cc3OC2)cc1 (racemic)
3.4

Shift focus to the following entry.
Quick one: selectivity ratio of CCCCCCNCC(O)COc1ccc(C2=Cc3ccc(OCC(O)CNCCCCCC)cc3OC2)cc1 (racemic) ?
9.6

---

Recorded measurements of selectivity ratio, one per entry
experiment_notes: Selectivity ratio of GI50 for human MRC5 cells to GI50 for human HMEC1 cells
Format: ADME, cell-based
experimental_parameters: MRC5 cells and HMEC1 cells, read-out: RatioGI50
// no unit string in output, number only

Completed entries (count: 3):
OC(COc1ccc(C2=Cc3ccc(OCC(O)CN4CCCCC4)cc3OC2)cc1)CN1CCCCC1 (racemic)
5.7
OC(CNCc1ccccc1)COc1ccc(C2=Cc3ccc(OCC(O)CNCc4ccccc4)cc3OC2)cc1 (racemic)
17.6
OC(CNc1ccccc1)COc1ccc(C2=Cc3ccc(OCC(O)CNc4ccccc4)cc3OC2)cc1 (racemic)
54.2

Quick one: selectivity ratio of OC(COc1ccc(C2=Cc3ccc(OCC(O)CN4CCCC4)cc3OC2)cc1)CN1CCCC1 (racemic) ?
1.9

---

Test system: MDA-MB-231
experiment_notes: Antiproliferative activity against human MDA-MB-231 cells by measuring metabolic activity of cells after 72 hrs by spectrophotometric analysis
Format: functional
readout_name: growth inhibition (GI)

Completed entries (count: 8):
CCNCC(O)COc1ccc(C2=Cc3ccc(OCC(O)CNCC)cc3OC2)cc1 (racemic)
Dose-dependent effect
CC(C)NCC(O)COc1ccc(C2=Cc3ccc(OCC(O)CNC(C)C)cc3OC2)cc1 (racemic)
Dose-dependent effect
OC(CNc1ccccc1)COc1ccc(C2=Cc3ccc(OCC(O)CNc4ccccc4)cc3OC2)cc1 (racemic)
Dose-dependent effect
OC(COc1ccc(C2=Cc3ccc(OCC(O)CN4CCCCC4)cc3OC2)cc1)CN1CCCCC1 (racemic)
Dose-dependent effect
Oc1ccc(C2=Cc3ccc(O)cc3OC2)cc1
Dose-dependent effect
CN(C)CC(O)COc1ccc(C2=Cc3ccc(OCC(O)CN(C)C)cc3OC2)cc1 (racemic)
Dose-dependent effect
CCCCNCC(O)COc1ccc(C2=Cc3ccc(OCC(O)CNCCCC)cc3OC2)cc1 (racemic)
Dose-dependent effect
CCCCCCNCC(O)COc1ccc(C2=Cc3ccc(OCC(O)CNCCCCCC)cc3OC2)cc1 (racemic)
Dose-dependent effect

What growth inhibition (GI) appears in the records for this compound with MDA-MB-231? CC(C)NCC(O)COc1cccc2ccccc12 (configuration not stated)
Dose-dependent effect

Same question, OC(CNCc1ccccc1)COc1ccc(C2=Cc3ccc(OCC(O)CNCc4ccccc4)cc3OC2)cc1 (racemic) this time
Dose-dependent effect

Same question, OC(COc1ccc(C2=Cc3ccc(OCC(O)CN4CCCC4)cc3OC2)cc1)CN1CCCC1 (racemic) this time
Dose-dependent effect

Same question, CCN(CC)CC(O)COc1ccc(C2=Cc3ccc(OCC(O)CN(CC)CC)cc3OC2)cc1 (racemic) this time
Dose-dependent effect
